// data source = ChEMBL document CHEMBL3351387

- experimental-system: Hepatocyte growth factor receptor (Homo sapiens, UniProt P08581)
- Sequence (P08581 whole entry): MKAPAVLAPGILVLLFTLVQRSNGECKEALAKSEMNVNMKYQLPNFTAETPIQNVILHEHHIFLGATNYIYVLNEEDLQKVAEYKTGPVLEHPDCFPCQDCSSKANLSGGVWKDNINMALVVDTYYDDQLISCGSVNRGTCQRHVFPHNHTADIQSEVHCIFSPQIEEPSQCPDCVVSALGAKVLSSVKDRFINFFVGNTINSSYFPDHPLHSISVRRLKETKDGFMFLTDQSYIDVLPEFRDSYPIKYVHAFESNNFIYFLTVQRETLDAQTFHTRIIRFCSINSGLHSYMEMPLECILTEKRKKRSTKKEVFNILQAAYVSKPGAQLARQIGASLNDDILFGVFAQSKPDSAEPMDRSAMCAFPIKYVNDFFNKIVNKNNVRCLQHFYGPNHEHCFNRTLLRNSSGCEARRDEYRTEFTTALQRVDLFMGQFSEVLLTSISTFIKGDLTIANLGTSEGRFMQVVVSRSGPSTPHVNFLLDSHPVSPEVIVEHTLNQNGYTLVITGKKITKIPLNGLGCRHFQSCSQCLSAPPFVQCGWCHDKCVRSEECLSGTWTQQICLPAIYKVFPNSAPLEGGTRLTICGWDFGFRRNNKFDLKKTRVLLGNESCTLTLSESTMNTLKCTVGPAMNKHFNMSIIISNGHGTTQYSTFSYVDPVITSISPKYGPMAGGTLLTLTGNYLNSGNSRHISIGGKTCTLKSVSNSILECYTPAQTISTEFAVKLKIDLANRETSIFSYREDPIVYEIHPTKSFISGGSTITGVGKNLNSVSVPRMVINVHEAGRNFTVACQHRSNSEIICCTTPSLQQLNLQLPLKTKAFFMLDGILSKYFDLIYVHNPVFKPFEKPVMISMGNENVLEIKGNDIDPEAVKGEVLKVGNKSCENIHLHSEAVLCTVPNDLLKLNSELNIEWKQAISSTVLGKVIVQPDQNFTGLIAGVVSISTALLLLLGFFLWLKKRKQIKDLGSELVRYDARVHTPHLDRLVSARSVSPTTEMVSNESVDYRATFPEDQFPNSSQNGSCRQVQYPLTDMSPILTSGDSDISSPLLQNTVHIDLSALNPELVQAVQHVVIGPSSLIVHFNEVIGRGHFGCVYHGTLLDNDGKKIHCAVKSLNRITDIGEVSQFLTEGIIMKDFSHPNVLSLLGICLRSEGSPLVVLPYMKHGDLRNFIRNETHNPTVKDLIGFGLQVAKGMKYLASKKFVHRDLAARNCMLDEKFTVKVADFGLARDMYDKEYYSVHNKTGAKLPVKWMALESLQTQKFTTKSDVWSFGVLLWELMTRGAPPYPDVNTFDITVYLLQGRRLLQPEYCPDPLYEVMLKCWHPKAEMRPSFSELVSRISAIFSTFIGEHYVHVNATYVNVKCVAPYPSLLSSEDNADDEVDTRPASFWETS
endpoint-label: IC50 (nM)

[[record]]
structure_as_smiles = "COc1ccc(NC(=O)CC(=O)Nc2ccc3c(c2)NC(=O)/C3=C\\c2[nH]c(C)c(C(=O)NCCN3CCCC3)c2C)cc1"
experimental_system = "Hepatocyte growth factor receptor (Homo sapiens, UniProt P08581)"
recorded_number = 10.6


###

- test-summary: Volume of distribution at steady state in rat at 2 mg/kg, iv after 24 hrs by LC-ESI-MS/MS method
- Type: ADME, organism-based
- Set-up: dose 2 mg/kg, route intravenous
- test-settings: in vivo, read-out: Vdss
endpoint-label: Vd (L/kg)

[[record]]
structure_as_smiles = "O=C1Nc2cc(NC(=O)c3c[nH]cc(-c4ccccc4F)c3=O)ccc2/C1=C/c1ccc[nH]1"
endpoint_label = "Vd"
scale_unit = "L/kg"
recorded_number = 9.34


###

- test-summary: Plasma concentration rat at 2 mg/kg, iv after 5 mins by LC-ESI-MS/MS method
- Format: ADME, organism-based
- Parameters: dose 2 mg/kg, route intravenous
endpoint-label: concentration at 5 min (ng/mL)

[[record]]
structure_as_smiles = "O=C1Nc2cc(NC(=O)c3c[nH]cc(-c4ccccc4F)c3=O)ccc2/C1=C/c1ccc[nH]1"
endpoint_label = "concentration at 5 min"
recorded_number = 4790


###

- test-summary: Clearance in rat at 2 mg/kg, iv after 24 hrs by LC-ESI-MS/MS method
- Assay type: ADME, organism-based
- Set-up: dose 2 mg/kg, route intravenous
- test-settings: in vivo
endpoint-label: clearance (mL/min/kg)

[[record]]
structure_as_smiles = "O=C1Nc2cc(NC(=O)c3c[nH]cc(-c4ccccc4F)c3=O)ccc2/C1=C/c1ccc[nH]1"
recorded_number = 9.41


###

- test-summary: Plasma concentration rat at 2 mg/kg, iv after 24 hrs by LC-ESI-MS/MS method
- Type: ADME, organism-based
- Parameters: dose 2 mg/kg, route intravenous
endpoint-label: concentration at 24 h (ng/mL)

[[record]]
structure_as_smiles = "O=C1Nc2cc(NC(=O)c3c[nH]cc(-c4ccccc4F)c3=O)ccc2/C1=C/c1ccc[nH]1"
recorded_number = 10


###

As shown below, each of these compounds has a reported IC50 value.
- experimental-system: Platelet-derived growth factor receptor alpha (Homo sapiens, UniProt P16234)
- Sequence (P16234 whole entry): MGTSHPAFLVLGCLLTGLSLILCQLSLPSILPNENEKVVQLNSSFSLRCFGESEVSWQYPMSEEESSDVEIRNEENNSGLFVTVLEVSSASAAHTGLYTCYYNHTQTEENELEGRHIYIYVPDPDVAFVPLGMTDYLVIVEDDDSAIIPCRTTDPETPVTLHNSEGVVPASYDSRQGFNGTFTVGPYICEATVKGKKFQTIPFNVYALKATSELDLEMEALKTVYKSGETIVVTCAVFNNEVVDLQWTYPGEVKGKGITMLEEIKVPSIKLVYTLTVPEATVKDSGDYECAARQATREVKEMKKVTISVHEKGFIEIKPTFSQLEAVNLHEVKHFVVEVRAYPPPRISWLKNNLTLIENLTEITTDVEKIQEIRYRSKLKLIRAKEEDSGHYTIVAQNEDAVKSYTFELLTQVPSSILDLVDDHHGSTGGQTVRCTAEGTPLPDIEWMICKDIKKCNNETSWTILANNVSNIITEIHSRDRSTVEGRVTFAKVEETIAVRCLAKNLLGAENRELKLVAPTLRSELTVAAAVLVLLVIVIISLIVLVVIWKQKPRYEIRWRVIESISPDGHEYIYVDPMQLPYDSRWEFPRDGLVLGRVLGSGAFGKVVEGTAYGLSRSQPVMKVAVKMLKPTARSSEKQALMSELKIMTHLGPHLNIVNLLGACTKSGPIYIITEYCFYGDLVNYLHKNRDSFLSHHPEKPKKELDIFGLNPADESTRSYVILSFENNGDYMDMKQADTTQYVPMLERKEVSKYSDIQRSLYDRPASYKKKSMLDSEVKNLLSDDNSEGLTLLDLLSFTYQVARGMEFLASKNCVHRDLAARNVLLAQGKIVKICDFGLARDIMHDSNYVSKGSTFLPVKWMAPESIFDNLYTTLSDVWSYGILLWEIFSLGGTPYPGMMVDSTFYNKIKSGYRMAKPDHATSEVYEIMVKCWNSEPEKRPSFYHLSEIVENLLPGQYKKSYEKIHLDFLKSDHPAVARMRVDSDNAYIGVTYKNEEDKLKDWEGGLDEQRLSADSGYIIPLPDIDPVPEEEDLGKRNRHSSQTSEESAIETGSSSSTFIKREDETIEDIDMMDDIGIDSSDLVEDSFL
endpoint-label: IC50

[[record]]
structure_as_smiles = "COc1ccc(NC(=O)CC(=O)Nc2ccc3c(c2)NC(=O)/C3=C\\c2[nH]c(C)c(C(=O)NCCN3CCCC3)c2C)cc1"
endpoint_label = "IC50"
result = "< 1 nM"

[[record]]
structure_as_smiles = "O=C(CC(=O)Nc1ccc2c(c1)NC(=O)/C2=C\\c1ccc[nH]1)Nc1ccc(F)cc1"
endpoint_label = "IC50"
result = "7.2 nM"

[[record]]
structure_as_smiles = "COc1ccc(NC(=O)CC(=O)Nc2ccc3c(c2)NC(=O)/C3=C\\c2[nH]c(C)c(C(=O)O)c2C)cc1"
endpoint_label = "IC50"
result = "< 1 nM"


###

- System: Rattus norvegicus
- test-summary: AUC (0 to 24 hrs) in rat plasma at 2 mg/kg, iv after 24 hrs by LC-ESI-MS/MS method
- Format: ADME, organism-based
- Parameters: time < 24 hr, dose 2 mg/kg, route intravenous
- test-settings: in vivo
endpoint-label: AUC (ng·h/mL)

[[record]]
structure_as_smiles = "O=C1Nc2cc(NC(=O)c3c[nH]cc(-c4ccccc4F)c3=O)ccc2/C1=C/c1ccc[nH]1"
recorded_number = 3660

